This collection of values is drawn from paper PMC3045587.

# Test System: T1, hTra2-β RRM (Homo sapiens, UniProt P62995 110-201)
# T1 sequence: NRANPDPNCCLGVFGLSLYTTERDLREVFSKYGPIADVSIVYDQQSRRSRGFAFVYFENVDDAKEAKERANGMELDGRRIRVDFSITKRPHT
# Assay Name: ITC
Give measured Kd for each item. Keep answers brief.
One number for each entry, in nM.

>  <Binder>
GAAGAA (ssRNA) [(GAA)2, GAAGAA]

>  <Recorded Number>
1500

$$$$

Attention now shifts to the item below.
Looking for the measured Kd of GACUUCAACAAGUC (structured_RNA) [14-mer CAA stem-loop RNA] , can you help? 3480
